# Protocol Text: Molar enthalpy of transition or fusion
# Particulars: Crystal 1; DSC
So I've got a bunch of molecules here, and I need their Molar enthalpy of transition or fusion values.
Response body: numeric value in kcal/mol, unit text excluded.

Name the recorded Molar enthalpy of transition or fusion of the item CCCCn1cc[n+](C)c1.O=S(=O)([O-])C(F)(F)F [1-butyl-3-methylimidazolium trifluoromethanesulfonate] in your answer.
6.21

Entry CCN(C)CC.CS(=O)(=O)O [diethylmethylammonium methanesulfonate] needs its Molar enthalpy of transition or fusion filled in; supply it.
3.35

Provide one value: measured Molar enthalpy of transition or fusion of CC[NH+](C)CC.O=S(=O)([O-])C(F)(F)F [diethylmethylammonium trifluoromethanesulfonate]
4.06

Give Molar enthalpy of transition or fusion for CCCC[N+]1(C)CCCCC1.O=S(=O)([O-])C(F)(F)F [1-butyl-1-methylpiperidinium trifluoromethanesulfonate]
5.5
